Molecular target: Upc2 (UniProt Q12151)
Sequence: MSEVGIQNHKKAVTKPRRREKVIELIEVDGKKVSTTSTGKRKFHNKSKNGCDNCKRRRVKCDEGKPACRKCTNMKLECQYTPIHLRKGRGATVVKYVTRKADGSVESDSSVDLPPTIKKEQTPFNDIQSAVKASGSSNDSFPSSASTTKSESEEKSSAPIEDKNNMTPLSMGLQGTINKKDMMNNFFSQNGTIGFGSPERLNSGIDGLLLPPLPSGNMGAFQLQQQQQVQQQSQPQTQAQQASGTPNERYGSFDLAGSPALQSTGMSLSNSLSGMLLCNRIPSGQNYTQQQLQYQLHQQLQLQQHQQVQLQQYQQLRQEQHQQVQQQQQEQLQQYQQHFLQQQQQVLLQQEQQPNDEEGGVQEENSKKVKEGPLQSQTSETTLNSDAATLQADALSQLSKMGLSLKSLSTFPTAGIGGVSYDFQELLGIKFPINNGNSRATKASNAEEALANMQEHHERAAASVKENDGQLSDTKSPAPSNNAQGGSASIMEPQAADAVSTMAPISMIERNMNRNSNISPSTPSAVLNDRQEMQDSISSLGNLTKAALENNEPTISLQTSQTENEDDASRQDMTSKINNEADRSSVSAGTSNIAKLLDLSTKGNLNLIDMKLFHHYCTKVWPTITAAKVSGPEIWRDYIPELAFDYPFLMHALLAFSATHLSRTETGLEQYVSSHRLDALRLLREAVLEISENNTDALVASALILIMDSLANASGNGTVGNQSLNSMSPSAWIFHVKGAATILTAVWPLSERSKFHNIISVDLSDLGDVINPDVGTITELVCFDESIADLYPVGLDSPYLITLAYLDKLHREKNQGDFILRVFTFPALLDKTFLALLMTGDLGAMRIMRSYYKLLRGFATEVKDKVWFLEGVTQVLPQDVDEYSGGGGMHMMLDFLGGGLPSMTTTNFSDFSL
Assay: PBM E-score (8-mer binding enrichment) (E-score (-0.5 to 0.5)); higher = stronger / more preferred TF binding
Details: protein concentration: 200 nM; construct: GST-full length
In all, about 33,000 sequences were measured (“E-score (-0.5 to 0.5)”: median about -0.043, highest 2% from about 0.37 on). The sample as a whole holds a higher share of the highest values than the screen did.
Note: every record was labeled by where its PBM E-score sits among bin A (below -0.1), bin B (-0.1 to below -0.02), bin C (-0.02 or more)

Please review the following examples before continuing.
GGGTCAAC
bin A
AGAAGTTG
bin C
AACGCTAG
bin B
CTTAGATC
bin B
CAGATTGG
bin A
CGCTGGAA
bin A
CGGGTATC
bin C
TACCATGA
bin A

Query: Which of the defined bands does the recorded PBM E-score of CAGGTCGC sit within?
Response: bin C

Query: ATTGGAAC , same question.
Response: bin B

Query: CTGGGTGC , same question.
Response: bin A

###

Molecular target: Upc2 (UniProt Q12151)
Sequence: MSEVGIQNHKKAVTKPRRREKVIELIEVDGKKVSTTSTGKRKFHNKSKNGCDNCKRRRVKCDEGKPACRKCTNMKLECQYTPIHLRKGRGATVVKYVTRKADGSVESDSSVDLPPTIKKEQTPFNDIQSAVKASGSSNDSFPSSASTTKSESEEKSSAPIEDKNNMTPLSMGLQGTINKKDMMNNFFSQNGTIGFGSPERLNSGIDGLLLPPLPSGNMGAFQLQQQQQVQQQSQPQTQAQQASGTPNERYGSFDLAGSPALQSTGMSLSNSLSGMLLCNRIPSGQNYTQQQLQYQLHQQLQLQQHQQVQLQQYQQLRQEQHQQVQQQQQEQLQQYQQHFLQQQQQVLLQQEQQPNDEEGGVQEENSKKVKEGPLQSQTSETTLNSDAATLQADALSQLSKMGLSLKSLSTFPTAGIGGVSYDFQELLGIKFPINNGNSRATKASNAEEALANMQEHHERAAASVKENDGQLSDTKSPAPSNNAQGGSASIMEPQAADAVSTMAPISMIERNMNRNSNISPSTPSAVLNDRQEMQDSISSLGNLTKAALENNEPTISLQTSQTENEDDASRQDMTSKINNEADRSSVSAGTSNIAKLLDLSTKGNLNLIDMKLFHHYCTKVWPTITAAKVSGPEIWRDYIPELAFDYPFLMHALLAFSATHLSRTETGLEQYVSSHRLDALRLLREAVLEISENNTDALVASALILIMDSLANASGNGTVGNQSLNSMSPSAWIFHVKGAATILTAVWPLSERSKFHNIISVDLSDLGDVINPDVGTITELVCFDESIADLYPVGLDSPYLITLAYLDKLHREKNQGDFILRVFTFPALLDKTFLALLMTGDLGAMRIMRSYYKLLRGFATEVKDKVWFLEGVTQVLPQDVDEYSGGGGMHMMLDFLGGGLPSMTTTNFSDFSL
Test: PBM E-score (8-mer binding enrichment) (E-score (-0.5 to 0.5)); higher = stronger / more preferred TF binding
Conditions: protein concentration: 200 nM; construct: GST-full length
The full ranking holds about 33,000 sequences; the median of “E-score (-0.5 to 0.5)” is about -0.043, and the highest 2% start at about 0.37. This is one part of a sample in which the highest values are shown more often than they occur.
The entries below come with measured PBM E-score values attached.
Could you keep your reply to the number by itself?

The following sequences have reported results that may help.
CGTTTGAC
0.363
CGTTTGCC
0.323
CAGCCTCA
-0.0411
ATCGATAG
-0.0178
CTGTATAA
0.156
TACAGCAA
0.138
GGTTTGGA
-0.0119
CCTGAGAA
-0.0858
ATGTATAA
0.0845
GATTCACC
-0.129

Query: Looking for the measured PBM E-score of GCTGCAAC , can you help?
Response: -0.107

Query: CCGTATAA , same question.
Response: 0.483

Values were extracted from the supplement of paper PMC3334620.
